Cited source for all entries: ChEMBL document CHEMBL4196013

experimental system: Proteasome Macropain subunit MB1 (Homo sapiens, UniProt P28074)
assay remarks: Inhibition of chymotrypsin-like activity of human 20S proteasome using Suc-LLVY-MCA as substrate measured for 1 hr by fluorescence assay
Peptide text beside a SMILES is read from it. * marks the point of attachment. X1 = CCC(=C(c1ccc(OCCN2CCCCCC2)cc1)c1ccc(OCCN2CCCCCC2)cc1)c1cccc(C(=O)*)c1
Exercise: state measured IC50 for each of the compounds provided.

Looking up "CCC(=C(c1ccc(OCCN2CCCCCC2)cc1)c1ccc(OCCN2CCCCCC2)cc1)c1cccc(CNC(=O)CN[C@@H](CCCNC(=N)N)C(=O)N[C@@H](CCCNC(=N)N)C(=O)N[C@@H](CCCNC(=N)N)C(=O)N[C@@H](CCCNC(=N)N)C(=O)N[C@@H](CCCNC(=N)N)C(=O)N[C@@H](CCCNC(=N)N)C(=O)NC(C)=O)c1" , I found its IC50 recorded as > 8 µM

Measured IC50 of CCC(=C(c1ccc(OCCN2CCCCCC2)cc1)c1ccc(OCCN2CCCCCC2)cc1)c1cccc(C(=O)NCC(=O)N[C@@H](CC(C)C)C(=O)N[C@@H](CC(C)C)C(=O)N[C@@H](CC(C)C)C(=O)NCC(=O)NCC(=O)NCC(=O)NCC(N)=O)c1 (X1-GLLLGGGG-NH2) : 1.1 µM

The compound listed as CCC(=C(c1ccc(OCCN2CCCCCC2)cc1)c1ccc(OCCN2CCCCCC2)cc1)c1cccc(C(=O)NCC(=O)N[C@@H](CCCNC(=N)N)C(=O)N[C@@H](CCCNC(=N)N)C(=O)N[C@@H](CCCNC(=N)N)C(=O)N[C@@H](CCCNC(=N)N)C(N)=O)c1 (X1-GRRRR-NH2) shows IC50 equal to > 8 µM

Form: compound = CCC(=C(c1ccc(OCCN2CCCCCC2)cc1)c1ccc(OCCN2CCCCCC2)cc1)c1cccc(C(=O)NCC(=O)N[C@@H](CC(C)C)C(=O)N[C@@H](CC(C)C)C(=O)N[C@H](C(=O)N[C@@H](Cc2ccc(O)cc2)C(=O)NCC(=O)NCC(N)=O)C(C)C)c1 (X1-GLLVYGG-NH2) ; IC50 = 0.89 µM

###

experimental system: Proteasome Macropain subunit MB1 (Homo sapiens, UniProt P28074)
Sequence (P28074 whole entry): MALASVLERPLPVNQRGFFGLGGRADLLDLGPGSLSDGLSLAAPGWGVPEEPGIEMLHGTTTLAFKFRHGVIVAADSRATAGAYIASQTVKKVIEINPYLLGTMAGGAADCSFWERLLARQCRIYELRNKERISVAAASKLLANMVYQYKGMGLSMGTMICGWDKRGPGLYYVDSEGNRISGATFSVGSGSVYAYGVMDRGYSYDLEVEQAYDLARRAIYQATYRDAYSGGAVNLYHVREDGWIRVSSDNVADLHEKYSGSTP
assay remarks: Inhibition of chymotrypsin-like activity of human 26S proteasome using Suc-LLVY-MCA as substrate measured for 1 hr by fluorescence assay
Peptide text beside a SMILES is read from it. * marks the point of attachment. X1 = CCC(=C(c1ccc(OCCN2CCCCCC2)cc1)c1ccc(OCCN2CCCCCC2)cc1)c1cccc(C(=O)*)c1
endpoint name: pIC50
Just the number, please; pIC50 means minus log10 of the concentration in mol/L.

Observed pIC50 on Proteasome Macropain subunit MB1 (Homo sapiens, UniProt P28074), entry CCC(=C(c1ccc(OCCN2CCCCCC2)cc1)c1ccc(OCCN2CCCCCC2)cc1)c1cccc(C(=O)NCC(=O)N[C@@H](CC(C)C)C(=O)N[C@@H](CC(C)C)C(=O)N[C@H](C(=O)N[C@@H](Cc2ccc(O)cc2)C(N)=O)C(C)C)c1 (X1-GLLVY-NH2) , equals 4.59

GET /values?item= CCC(=C(c1ccc(OCCN2CCCCCC2)cc1)c1ccc(OCCN2CCCCCC2)cc1)c1cccc(C(=O)NCC(=O)N[C@@H](CC(C)C)C(=O)N[C@@H](CC(C)C)C(=O)N[C@H](C(=O)N[C@@H](Cc2ccc(O)cc2)C(=O)NCC(=O)NCC(N)=O)C(C)C)c1 (X1-GLLVYGG-NH2) &system= Proteasome Macropain subunit MB1 (Homo sapiens, UniProt P28074) returns pIC50: 5.04

The observed pIC50 for "CCC(=C(c1ccc(OCCN2CCCCCC2)cc1)c1ccc(OCCN2CCCCCC2)cc1)c1cccc(C(=O)NCC(=O)N[C@@H](CCCNC(=N)N)C(=O)N[C@@H](CCCNC(=N)N)C(=O)N[C@@H](CCCNC(=N)N)C(=O)N[C@@H](CCCNC(=N)N)C(=O)N[C@@H](CCCNC(=N)N)C(=O)N[C@@H](CCCNC(=N)N)C(=O)N[C@@H](CCCNC(=N)N)C(=O)N[C@@H](CCCNC(=N)N)C(=O)NC(C)=O)c1" when tested with Proteasome Macropain subunit MB1 (Homo sapiens, UniProt P28074) stands at 5.03

###

experimental system: Proteasome Macropain subunit MB1 (Homo sapiens, UniProt P28074)
assay remarks: Inhibition of chymotrypsin-like activity of human 20S proteasome using Suc-LLVY-MCA as substrate measured for 1 hr by fluorescence assay
Give IC50 for every item shown.

get_value(item= "N=C(N)NCCC[C@H](NC(=O)[C@H](CCCNC(=N)N)NC(=O)[C@H](CCCNC(=N)N)NC(=O)[C@H](CCCNC(=N)N)NC(=O)[C@H](CCCNC(=N)N)NC(=O)[C@H](CCCNC(=N)N)NC(=O)[C@H](CCCNC(=N)N)NC(=O)[C@H](CCCNC(=N)N)NC(=O)CN)C(N)=O" , readout=IC50) returns > 8 µM

Looking up "CCC(=C(c1ccc(OCCN2CCCCCC2)cc1)c1ccc(OCCN2CCCCCC2)cc1)c1cccc(C(=O)NCC(=O)N[C@@H](CCCNC(=N)N)C(=O)N[C@@H](CCCNC(=N)N)C(=O)N[C@@H](CCCNC(=N)N)C(=O)N[C@@H](CCCNC(=N)N)C(=O)N[C@@H](CCCNC(=N)N)C(=O)N[C@@H](CCCNC(=N)N)C(=O)N[C@@H](CCCNC(=N)N)C(=O)N[C@@H](CCCNC(=N)N)C(=O)NC(C)=O)c1" , I see its IC50 listed as > 40 µM

Reported IC50 for "CCC(=C(c1ccc(OCCN2CCCCCC2)cc1)c1ccc(OCCN2CCCCCC2)cc1)c1ccccc1" was 1.02 µM

###

experimental system: Proteasome Macropain subunit MB1 (Homo sapiens, UniProt P28074)
Sequence (P28074 whole entry): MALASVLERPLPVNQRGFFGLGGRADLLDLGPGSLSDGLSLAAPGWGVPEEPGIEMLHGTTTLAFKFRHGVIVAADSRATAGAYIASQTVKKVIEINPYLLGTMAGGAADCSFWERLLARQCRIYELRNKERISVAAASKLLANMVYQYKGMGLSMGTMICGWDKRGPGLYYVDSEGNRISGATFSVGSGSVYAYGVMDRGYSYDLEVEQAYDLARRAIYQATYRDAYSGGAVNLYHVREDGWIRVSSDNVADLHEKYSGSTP
assay remarks: Inhibition of chymotrypsin-like activity of human 20S proteasome using Suc-LLVY-MCA as substrate measured for 1 hr by fluorescence assay
Peptide text beside a SMILES is read from it. * marks the point of attachment. X1 = CCC(=C(c1ccc(OCCN2CCCCCC2)cc1)c1ccc(OCCN2CCCCCC2)cc1)c1cccc(C(=O)*)c1
Record form. Attribute: pIC50. Fill in for each entry.
Please treat pIC50 as minus the base-10 logarithm of the molar concentration.

Summary line: "CCC(=C(c1ccc(OCCN2CCCCCC2)cc1)c1ccc(OCCN2CCCCCC2)cc1)c1cccc(C(=O)NCC(=O)N[C@@H](CC(C)C)C(=O)N[C@@H](CC(C)C)C(=O)N[C@@H](CCC(=O)O)C(N)=O)c1" , Proteasome Macropain subunit MB1 (Homo sapiens, UniProt P28074), reported pIC50 = 5.21

Fill in: Proteasome Macropain subunit MB1 (Homo sapiens, UniProt P28074) pIC50 for "CCC(=C(c1ccc(OCCN2CCCCCC2)cc1)c1ccc(OCCN2CCCCCC2)cc1)c1cccc(CNC(=O)CN[C@@H](CC(C)C)C(=O)N[C@@H](CC(C)C)C(=O)N[C@H](C(=O)N[C@@H](Cc2ccc(O)cc2)C(=O)NC(C)=O)C(C)C)c1" = 6.43

Observed pIC50 on Proteasome Macropain subunit MB1 (Homo sapiens, UniProt P28074), entry CCC(=C(c1ccc(OCCN2CCCCCC2)cc1)c1ccc(OCCN2CCCCCC2)cc1)c1cccc(C(=O)NCC(=O)N[C@@H](CC(C)C)C(=O)N[C@@H](CC(C)C)C(=O)N[C@H](C(=O)N[C@@H](Cc2ccc(O)cc2)C(N)=O)C(C)C)c1 (X1-GLLVY-NH2) , equals 6.05

###

experimental system: Proteasome Macropain subunit MB1 (Homo sapiens)
Sequence (P28074 whole entry): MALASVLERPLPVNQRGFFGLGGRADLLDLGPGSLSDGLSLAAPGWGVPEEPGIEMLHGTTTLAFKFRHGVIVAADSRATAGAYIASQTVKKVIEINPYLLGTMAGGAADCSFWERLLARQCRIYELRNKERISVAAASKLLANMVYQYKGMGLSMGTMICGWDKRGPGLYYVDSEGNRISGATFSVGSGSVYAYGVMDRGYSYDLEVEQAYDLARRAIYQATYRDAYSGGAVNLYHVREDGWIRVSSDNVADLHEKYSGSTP
assay remarks: Inhibition of chymotrypsin-like activity of human 26S proteasome using Suc-LLVY-MCA as substrate measured for 1 hr by fluorescence assay
pIC50: −log10 of the molar value. Peptide text beside a SMILES is read from it. * marks the point of attachment. X1 = CCC(=C(c1ccc(OCCN2CCCCCC2)cc1)c1ccc(OCCN2CCCCCC2)cc1)c1cccc(C(=O)*)c1
Answer each item with its documented pIC50.

// pIC50 (Proteasome Macropain subunit MB1 (Homo sapiens)) for "CCC(=C(c1ccc(OCCN2CCCCCC2)cc1)c1ccc(OCCN2CCCCCC2)cc1)c1ccccc1" = < 4.00

// pIC50 (Proteasome Macropain subunit MB1 (Homo sapiens)) for "CCC(=C(c1ccc(OCCN2CCCCCC2)cc1)c1ccc(OCCN2CCCCCC2)cc1)c1cccc(CNC(=O)CN[C@@H](CCCNC(=N)N)C(=O)N[C@@H](CCCNC(=N)N)C(=O)N[C@@H](CCCNC(=N)N)C(=O)N[C@@H](CCCNC(=N)N)C(=O)NC(C)=O)c1" = < 4.40

Form field, pIC50 with Proteasome Macropain subunit MB1 (Homo sapiens), item "CCC(=C(c1ccc(OCCN2CCCCCC2)cc1)c1ccc(OCCN2CCCCCC2)cc1)c1cccc(C(=O)NCC(=O)N[C@@H](CC(C)C)C(=O)N[C@@H](CC(C)C)C(=O)N[C@@H](CCC(=O)O)C(N)=O)c1" : 4.62

Lab entry: Proteasome Macropain subunit MB1 (Homo sapiens) assay, molecule CCC(=C(c1ccc(OCCN2CCCCCC2)cc1)c1ccc(OCCN2CCCCCC2)cc1)c1cccc(C(=O)NCC(=O)N[C@@H](CCCNC(=N)N)C(=O)N[C@@H](CCCNC(=N)N)C(=O)N[C@@H](CCCNC(=N)N)C(=O)N[C@@H](CCCNC(=N)N)C(N)=O)c1 (X1-GRRRR-NH2) , pIC50 = < 4.40

The molecule "CC[C@]1(O)C[C@@H]2CN(CCc3c([nH]c4ccccc34)[C@@](C(=O)OC)(c3cc4c(cc3OC)N(C)[C@H]3[C@@](O)(C(=O)OC)[C@H](OC(C)=O)[C@]5(CC)C=CCN6CC[C@]43[C@@H]65)C2)C1" on Proteasome Macropain subunit MB1 (Homo sapiens): pIC50 was < 4.40
